Would you mind telling me the reported GI50 of each entry?
System: MOLT-4
Method description: NCI tumour cell line growth inhibition, 48 h
Activity calls are given as the source filed them. Cut-off read from the data, not from the text of the source: active = GI50 up to about 1.1 µM and inactive = higher.

In plain terms, COC(=O)/C(C#N)=C(\Nc1ccccc1)N1CCCC1 has a documented GI50 of > 100 µM (inactive)

In plain terms, O=S1(=O)OCCOS(=O)(=O)C1(F)Cc1ccccc1 has a documented GI50 of > 100 µM (inactive)

In plain terms, Cc1cc(=O)n2nc(CCl)sc2n1 has a documented GI50 of 11.8 µM (inactive)

In plain terms, COc1ccc(/C=C2\C[C@H]3[C@@H]4CCC5=C/C(=N/O)CC[C@]5(C)[C@H]4CC[C@]3(C)\C2=N\O)cc1OC has a documented GI50 of 5.79 µM (inactive)

----------
Test system: U-251
Method description: NCI tumour cell line growth inhibition, 48 h
Active and inactive are the calls of the source. No stated cut-off is given here; in the data, active = GI50 up to about 1.1 µM and inactive = higher. Where a SMILES comes first, the peptide text is derived from it. [ ]: non-standard residue; d: D form. Phe(F5) = N[CH](Cc1c(F)c(F)c(F)c(F)c1F)C(=O)O
Parameter measured: GI50

In plain terms, O=C(c1ccc(Br)cc1)n1c2ccc(Br)cc2c2nc3ccccc3nc21 has a documented GI50 of > 100 µM (inactive)

In plain terms, COC(=O)/C=C1\C(=O)N(C(C)=O)c2ccccc21 has a documented GI50 of 12.8 µM (inactive)

In plain terms, Cc1ccnc2nc3[nH]c4ccccc4c3cc12 has a documented GI50 of 39.1 µM (inactive)

In plain terms, O=C1CC2(c3ccccc3)ON=C(c3ccccc3)N2c2ccccc2N1 (centres undefined) has a documented GI50 of 80.9 µM (inactive)

In plain terms, COc1ccc(/C=C2/C(=O)N(C(=O)c3ccc(Cl)cc3)N=C2C)cc1OC has a documented GI50 of > 100 µM (inactive)

In plain terms, COc1ccc(-n2cnc3c(NCC(=O)O)ncnc32)cc1 has a documented GI50 of > 100 µM (inactive)

In plain terms, O=C1C(NS(=O)(=O)c2ccccc2)=C(n2ccnc2)C(=O)c2ccccc21 has a documented GI50 of > 100 µM (inactive)

In plain terms, C=C[C@@]1(C)CC(=O)[C@]2(O)[C@@]3(C)[C@@H](OC(C)=O)CCC(C)(C)[C@@H]3[C@H](O)[C@H](OC(C)=O)[C@@]2(C)O1 has a documented GI50 of > 100 µM (inactive)

In plain terms, COC(=O)C(CC(C)C)NC(=O)C(Cc1c[nH]cn1)NC(=O)CNC(=O)C(NC(=O)C(C)NC(=O)C(Cc1c[nH]c2ccccc12)NC(=O)C(CCC(=O)O)NC(=O)C(N)Cc1c(F)c(F)c(F)c(F)c1F)C(C)C (centres undefined) (H-[Phe(F5)]EWAVGHL-OMe; configuration not given here) has a documented GI50 of > 12.5 µM (inactive)

In plain terms, C=CCc1cccc2cc(C(=O)Nc3ccc(C)cc3)c(=N)oc12 has a documented GI50 of > 100 µM (inactive)

In plain terms, CN(C)CCCNC(=O)CCNC(=O)c1cc(NC(=O)c2cc(NC(=O)c3cc(NC(=O)CCCNC(=O)c4cc(NC(=O)c5cc(NC(=O)c6nccn6C)cn5C)cn4C)cn3C)cn2C)cn1C has a documented GI50 of > 100 µM (inactive)

In plain terms, CN(C)C(=O)C(F)(F)C(c1ccc(Br)cc1)C1C(=O)N(C)C(=O)N(C)C1=O (centres undefined) has a documented GI50 of > 100 µM (inactive)

In plain terms, C=CCCCn1ccc2ccccc21 has a documented GI50 of > 100 µM (inactive)

In plain terms, CN(C)CCn1c(CO)nc2c1c(=O)n(C)c(=O)n2C has a documented GI50 of > 100 µM (inactive)

----------
Would you mind telling me the reported GI50 of each entry?
Tested on: SK-MEL-28
Method description: NCI tumour cell line growth inhibition, 48 h
The source made the active and inactive calls. Cut-off read from the data, not from the text of the source: active = GI50 up to about 1.1 µM and inactive = higher.

In plain terms, C[Si](C)(C)/C(I)=C/CO has a documented GI50 of 27.9 µM (inactive)

In plain terms, C=CCCC(=O)N1CCC(C(=O)OCC)C1=O (stereo not drawn) has a documented GI50 of > 100 µM (inactive)

In plain terms, O=C(CC(O)(c1ccccc1)c1ccc(Cl)cc1)NC(=O)c1ccccc1O (stereo not drawn) has a documented GI50 of 19.8 µM (inactive)

In plain terms, CN(C)CCNC(=O)c1cc(Cl)cc2cc3ccccc3nc12 has a documented GI50 of 1.76 µM (inactive)

In plain terms, CCOC(=O)C(C)(NC(=O)c1ccc(NCc2ccc3nc(NC(=O)c4ccccc4)nc(NC(=O)c4ccccc4)c3c2)cc1)C(=O)OCC has a documented GI50 of 8.18 µM (inactive)

In plain terms, Oc1cccc(-c2cccc(O)n2)n1 has a documented GI50 of > 100 µM (inactive)

In plain terms, C=CCn1c(-c2ccc(Cl)cc2Cl)cs/c1=N\c1c(C)n(C)n(-c2ccccc2)c1=O has a documented GI50 of 13 µM (inactive)

In plain terms, O=C(/C=C(O)/C(=C/C(=O)c1ccccc1)NN=C(c1ccccc1)c1ccccc1)c1ccccc1 has a documented GI50 of 51.6 µM (inactive)

In plain terms, CC(=O)N1NC(c2ccccc2)=NC(=O)C1c1cc(C)c(O)c(C)c1 (stereo not drawn) has a documented GI50 of 54.6 µM (inactive)

In plain terms, FC(F)(F)C1(C(F)(F)F)O[Si]2(OC(C(F)(F)F)(C(F)(F)F)c3ccccc32)c2ccccc21 has a documented GI50 of 12 µM (inactive)

In plain terms, O=C1NC(=O)C(CCC(=O)c2ccc3ccccc3c2)C(=O)N1 has a documented GI50 of > 100 µM (inactive)

In plain terms, CC(=O)N1C(c2[nH]c3ccccc3c2Cc2ccccc2)CCN1c1ccccc1 (stereo not drawn) has a documented GI50 of > 10 µM (inactive)

In plain terms, Cc1ccc(C(=O)Cc2nc3c([nH]c2=O)c(C)nn3-c2ccccc2)c(C)c1 has a documented GI50 of > 10 µM (inactive)

----------
Would you mind telling me the reported GI50 of each entry?

The measured GI50 that CCCCN(CC)C(=O)C1=C(C)NC(C)=C(C(=O)N(CC)CCCC)C1 showed for HCT-15 is > 100 µM

The measured GI50 that COc1ccc(/C=C2/C(=O)N(C(=O)c3ccc(Cl)cc3)N=C2C)cc1OC showed for HCT-15 is > 100 µM

The measured GI50 that CCOC(=O)C(NCc1cccc(C(F)(F)F)c1)(NC(=O)CC)C(F)(F)F (centres undefined) showed for HCT-15 is > 100 µM

The measured GI50 that CN(C)c1n/c(=N/Cc2cccnc2)ss1 showed for HCT-15 is > 10 µM

The measured GI50 that O=C1NC(=O)C(CCC(=O)c2ccc3ccccc3c2)C(=O)N1 showed for HCT-15 is > 100 µM

The measured GI50 that CC(C)(O)C1CC(=O)C(C)(C2C(O)CC3(C)C4CC=C5C(CCC(O)C5(C)C)C4(C)C(=O)CC23C)O1 (centres undefined) showed for HCT-15 is > 100 µM

The measured GI50 that O=c1[nH]nc(Cc2ccccc2)n1/N=C\c1ccccc1 showed for HCT-15 is > 100 µM

The measured GI50 that Cc1ccc(S(=O)(=O)NC(=O)OC23COCN2COC3)cc1 showed for HCT-15 is > 100 µM

The measured GI50 that CCOC(=O)/C=C/c1c[nH]c(C(=O)OCC)c1 showed for HCT-15 is > 100 µM

The measured GI50 that Cc1cc(C)c2c(=O)n(CC(O)CN(Cc3ccccc3)CC(O)Cn3sc4nc(C)cc(C)c4c3=O)sc2n1 (centres undefined) showed for HCT-15 is 17.3 µM

The measured GI50 that CC1OC23CCCCC2C(C#N)(C#N)C1(C#N)C(=N)O3 (centres undefined) showed for HCT-15 is 15.3 µM

The measured GI50 that COC(=O)C(C(=O)C(=O)NC1=C(Cl)C(=O)c2ccccc2C1=O)c1csc(-n2nc(-c3ccccc3)cc2-c2ccccc2)n1 (centres undefined) showed for HCT-15 is > 100 µM

The measured GI50 that CCOC(=O)C1=NN(c2ccc(Cl)cc2)C2=CC(C)=NN(C)C(=S)N21 showed for HCT-15 is 67.5 µM

The measured GI50 that CC(=O)OCC(=O)O[C@@H]1[C@H]2[C@@H](OC(=O)c3ccccc3)[C@@H](C)C[C@]2(O)[C@H](OC(C)=O)[C@@]2(C)C[C@]1(OC(C)=O)C[C@H]1C(=O)C(C)(C)[C@@H](OC(C)=O)[C@@H]12 showed for HCT-15 is > 25 µM

----------
Would you mind telling me the reported GI50 of each entry?
System: RXF 631
Method description: NCI tumour cell line growth inhibition, 48 h
The source made the active and inactive calls. Cut-off read from the data, not from the text of the source: active = GI50 up to about 1.1 µM and inactive = higher.

The measured GI50 that O=C(CC(O)(c1ccccc1)c1ccc(Cl)cc1)NC(=O)c1ccccc1O (centres undefined) showed for RXF 631 is 15.6 µM (inactive)

The measured GI50 that COC1OC(COCc2ccc(Cl)cc2)C(OCc2ccc(Cl)cc2)C1O (centres undefined) showed for RXF 631 is 16.2 µM (inactive)

The measured GI50 that N#CC(C(=O)/C(=N/N)C(C#N)c1ccc(Cl)cc1)c1ccc(Cl)cc1 (centres undefined) showed for RXF 631 is > 100 µM (inactive)

The measured GI50 that COC(=O)C(=O)OC1(C(C)=O)CC2(c3ccccc3)OC1(c1ccccc1)c1ccccc12 (centres undefined) showed for RXF 631 is 23.1 µM (inactive)
